pIC50 by entry:
measurement-target: 5HT transporters [(h)SERT] (Homo sapiens)
Construct: expressed in transfected cells; host or cells: HEK-293
Sequence (P31645 whole entry): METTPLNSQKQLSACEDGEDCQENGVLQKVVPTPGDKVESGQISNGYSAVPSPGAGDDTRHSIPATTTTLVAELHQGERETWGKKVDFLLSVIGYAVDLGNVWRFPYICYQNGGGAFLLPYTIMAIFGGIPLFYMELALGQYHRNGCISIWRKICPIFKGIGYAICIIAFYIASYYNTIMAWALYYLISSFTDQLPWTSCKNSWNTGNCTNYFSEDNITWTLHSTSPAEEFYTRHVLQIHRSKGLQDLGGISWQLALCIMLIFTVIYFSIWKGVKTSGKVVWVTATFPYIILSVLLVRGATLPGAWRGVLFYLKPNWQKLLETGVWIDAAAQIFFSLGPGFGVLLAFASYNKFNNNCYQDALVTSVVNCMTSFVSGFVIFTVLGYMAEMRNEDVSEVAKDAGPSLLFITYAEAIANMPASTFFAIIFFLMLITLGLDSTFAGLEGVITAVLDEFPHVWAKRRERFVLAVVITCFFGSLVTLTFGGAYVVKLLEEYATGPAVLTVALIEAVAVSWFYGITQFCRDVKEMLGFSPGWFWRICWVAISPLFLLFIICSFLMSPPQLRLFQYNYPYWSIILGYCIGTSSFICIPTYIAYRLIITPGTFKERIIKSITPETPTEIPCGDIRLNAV
test-summary: Inhibition of [3H]serotonin uptake into HEK293 cells stably expressing hSERT
Type: cell-based
pIC50: −log10 of the molar value.

compound	pIC50
CC1NC(C)(C)COC1(O)c1ccc(Cl)c(Cl)c1 (racemic)	6.44
CC1NC(C)(C)COC1(O)c1cccnc1 (racemic)	< 5.00
C[C@@H]1NC(C)(C)CO[C@@]1(O)c1ccc(-c2ccccc2)cc1	< 5.00
C[C@@H]1NC(C)(C)CO[C@@]1(O)c1cccc(F)c1	< 5.00
COc1ccc([C@]2(O)OCC(C)(C)N[C@H]2C)cc1	< 5.00
C[C@@H]1NC(C)(C)CO[C@@]1(O)c1cccc(Br)c1	< 5.00
